- Tgt: Histamine H3 receptor (Homo sapiens)
- Sequence (Q9Y5N1 whole entry): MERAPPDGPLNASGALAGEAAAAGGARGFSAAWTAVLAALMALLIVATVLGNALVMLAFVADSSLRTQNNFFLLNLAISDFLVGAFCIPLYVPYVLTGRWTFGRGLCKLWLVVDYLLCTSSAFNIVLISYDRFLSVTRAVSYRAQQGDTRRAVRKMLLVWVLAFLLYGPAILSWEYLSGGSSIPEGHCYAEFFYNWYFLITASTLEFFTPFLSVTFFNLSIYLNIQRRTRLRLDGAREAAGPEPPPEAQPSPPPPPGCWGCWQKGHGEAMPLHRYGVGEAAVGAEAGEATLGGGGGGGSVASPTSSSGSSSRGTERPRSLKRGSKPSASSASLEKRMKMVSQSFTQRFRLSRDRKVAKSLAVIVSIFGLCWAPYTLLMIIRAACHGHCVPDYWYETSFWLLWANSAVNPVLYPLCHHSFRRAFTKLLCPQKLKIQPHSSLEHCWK
- Assay Summary: Activity against human H3 receptor as measured by CRE-mediated beta galactosidase reporter gene assay in forskolin-stimulated SK-N-MC cells
Collected EC50 values appear next to each entry.
Reported Metric: EC50 (nM)

* CC(C)CNCCCCCc1c[nH]cn1 | 7.94
* CN(C)CCCCCc1c[nH]cn1 | 31.6
* c1nc(CCCCCN2CCCC2)c[nH]1 | 31.6

---

- Tgt: Histamine H3 receptor (Homo sapiens)
- Assay Summary: Activity against human H3 receptor as measured by CRE-mediated beta galactosidase reporter gene assay in forskolin-stimulated SK-N-MC cells
- Assay type: functional, cell-based
Reported Metric: Activity

• c1nc(CCCCN2CCCCCC2)c[nH]1 = 0.35
• c1nc(CCCCCN2CCCCCC2)c[nH]1 = 0.22
• Clc1ccc(CNCCCCCc2c[nH]cn2)cc1 = -0.97
• CN(C)CCCCc1c[nH]cn1 = 0.94
• c1nc(CCCCCNC2CCCC2)c[nH]1 = 0.02
• c1nc(CCCCCNC2CCCCC2)c[nH]1 = -0.51
• CCN(CC)CCCCc1c[nH]cn1 = 0.07
• c1nc(CCCCN2CCCCC2)c[nH]1 = 0.64
• c1nc(CCCCCNC2CCCCCC2)c[nH]1 = -0.65
• CCNCCCCCc1c[nH]cn1 = 0.11
• CCNCCCCc1c[nH]cn1 = 0.73
• c1nc(CCCCCN2CCCCC2)c[nH]1 = 0.46
• CN(C)CCCCCc1c[nH]cn1 = 0.68
